Entries and their measured MIC follow.
system: Klebsiella pneumoniae; assay: Antibacterial activity against Klebsiella pneumoniae […] after 24 hrs by agar streak dilution method; format: functional
Give a bare numeral; the unit µg/mL is implied.

Query block: Lab note: need MIC with Klebsiella pneumoniae for entry CCN1CCN(CC2SC(c3cccc(O)c3O)N(c3ccc(Nc4nc(Oc5cc(=O)n(C)c6ccccc56)nc(N(C)C)n4)cc3)C2=O)CC1 (stereo not given) , please look it up.
Result block: 100

* * *

Entries and their measured zone of inhibition at 100 µg/disc follow.
test system: Shigella flexneri; assay: Antibacterial activity against Shigella flexneri at 100 ug/disc after 24 hrs by disc diffusion method; type: functional; conditions: read-out: DIZ
Give a bare numeral; the unit mm is implied.

Examples from the recorded data:
COMPOUND	ENDPOINT NAME	TEST RESULT
CCN1CCN(CC2SC(c3ccccc3Br)N(c3ccc(Nc4nc(Oc5cc(=O)n(C)c6ccccc56)nc(N(C)C)n4)cc3)C2=O)CC1 (stereo not given)	zone of inhibition at 100 µg/disc	11
CCN1CCN(CC2SC(c3ccc([N+](=O)[O-])cc3)N(c3ccc(Nc4nc(Oc5cc(=O)n(C)c6ccccc56)nc(N(C)C)n4)cc3)C2=O)CC1 (stereo not given)	zone of inhibition at 100 µg/disc	22
CCN1CCN(CC2SC(c3ccc(Cl)cc3)N(c3ccc(Nc4nc(Oc5cc(=O)n(C)c6ccccc56)nc(N(C)C)n4)cc3)C2=O)CC1 (stereo not given)	zone of inhibition at 100 µg/disc	26

Turning to the following compound.
Query block: Which zone of inhibition at 100 µg/disc is listed for CCN1CCN(CC2SC(c3ccc(C)cc3)N(c3ccc(Nc4nc(Oc5cc(=O)n(C)c6ccccc56)nc(N(C)C)n4)cc3)C2=O)CC1 (stereo not given) ?
Result block: 24
